// reported inhibition at 100 µM for each item listed
# system tested: collagenase A (ColA) (Clostridium perfringens, UniProt P43153)
# Sequence (P43153 87-1104 limits assumed): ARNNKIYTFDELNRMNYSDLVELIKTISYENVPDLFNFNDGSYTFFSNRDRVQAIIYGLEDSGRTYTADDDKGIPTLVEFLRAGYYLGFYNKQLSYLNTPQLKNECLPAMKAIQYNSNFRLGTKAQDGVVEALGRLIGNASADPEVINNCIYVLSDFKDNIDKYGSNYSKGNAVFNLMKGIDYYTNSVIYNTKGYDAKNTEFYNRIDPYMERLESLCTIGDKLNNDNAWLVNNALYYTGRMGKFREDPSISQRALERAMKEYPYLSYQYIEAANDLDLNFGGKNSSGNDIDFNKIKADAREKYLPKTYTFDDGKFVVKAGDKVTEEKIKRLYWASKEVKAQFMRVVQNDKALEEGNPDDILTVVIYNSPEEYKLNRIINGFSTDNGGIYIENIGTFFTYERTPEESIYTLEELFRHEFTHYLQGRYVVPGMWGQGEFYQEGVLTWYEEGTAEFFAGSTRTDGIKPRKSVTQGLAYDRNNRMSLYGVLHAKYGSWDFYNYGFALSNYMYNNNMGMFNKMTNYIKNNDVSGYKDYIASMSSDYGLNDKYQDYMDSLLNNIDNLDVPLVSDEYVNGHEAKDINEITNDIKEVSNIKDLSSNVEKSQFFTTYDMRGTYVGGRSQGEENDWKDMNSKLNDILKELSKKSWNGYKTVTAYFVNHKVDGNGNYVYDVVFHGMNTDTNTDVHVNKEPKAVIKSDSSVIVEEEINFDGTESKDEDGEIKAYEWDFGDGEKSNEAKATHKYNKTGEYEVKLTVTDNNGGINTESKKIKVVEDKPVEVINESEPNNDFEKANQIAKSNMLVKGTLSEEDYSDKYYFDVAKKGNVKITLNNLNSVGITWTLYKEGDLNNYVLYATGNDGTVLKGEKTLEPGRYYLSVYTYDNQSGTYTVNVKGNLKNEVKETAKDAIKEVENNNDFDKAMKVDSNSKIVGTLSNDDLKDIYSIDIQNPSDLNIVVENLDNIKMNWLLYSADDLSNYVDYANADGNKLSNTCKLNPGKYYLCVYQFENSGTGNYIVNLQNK
# protocol notes: biochemical
# Set-up: species or system C. perfringens
# test settings: read-out: Inhibition(%) on ColA
observed property: inhibition at 100 µM (%)

>>> print(df.to_string())
                                    compound                             system_tested     observed_property  number
 0    O=C(O)C1=C[C@@H](O)[C@@H](O)[C@H](O)C1  collagenase A (ColA) (Clostridium perfringens, UniProt P43153)  inhibition at 100 µM    -0.2
 1  O=C(O)c1cc(O)c2c(c1)C(=O)c1cccc(O)c1C2=O  collagenase A (ColA) (Clostridium perfringens, UniProt P43153)  inhibition at 100 µM    78.5
 2  C[C@]1(Cn2ccnn2)[C@H](C(=O)O)N2C(=O)C[C@H]2S1(=O)=O [tazobactam, reference compound]  collagenase A (ColA) (Clostridium perfringens, UniProt P43153)  inhibition at 100 µM    18.7
 3  O=C1c2c(O)cccc2C([C@@H]2O[C@H](CO)[C@@H](O)[C@H](O)[C@H]2O)c2cc(CO)cc(O)c21 (stereo partly shown)  collagenase A (ColA) (Clostridium perfringens, UniProt P43153)  inhibition at 100 µM     4.4
 4                  NC(=O)NCCC[C@H](N)C(=O)O  collagenase A (ColA) (Clostridium perfringens, UniProt P43153)  inhibition at 100 µM     6.8
 5  COc1ccc2[nH]c3c(c2c1)CCNC3C(=O)O (stereo not shown)  collagenase A (ColA) (Clostridium perfringens, UniProt P43153)  inhibition at 100 µM    18.8
 6  COc1cc2c(cc1OC)-c1cc3ccc(OC)c(OC)c3c[n+]1CC2 [Palmatine chloride, palmatine chloride]  collagenase A (ColA) (Clostridium perfringens, UniProt P43153)  inhibition at 100 µM     103
 7  O=C(O)C=Cc1cccc(O)c1 [3-hydroxycinnamic acid]  collagenase A (ColA) (Clostridium perfringens, UniProt P43153)  inhibition at 100 µM     0.8
 8                  O=C1C=C(O)C(=O)c2ccccc21  collagenase A (ColA) (Clostridium perfringens, UniProt P43153)  inhibition at 100 µM    -6.1
 9  O=c1cc(-c2ccc(O)cc2)oc2cccc(O)c12 [4′,5-Dihydroxyflavone, 4′,5-dihydroxyflavone]  collagenase A (ColA) (Clostridium perfringens, UniProt P43153)  inhibition at 100 µM      15
10                   O=C(O)c1cc(O)c(O)c(O)c1  collagenase A (ColA) (Clostridium perfringens, UniProt P43153)  inhibition at 100 µM   -21.4
11  O=c1c(O)c(-c2ccccc2)oc2ccc(O)cc12 [3,6-dihydroxyflavone]  collagenase A (ColA) (Clostridium perfringens, UniProt P43153)  inhibition at 100 µM     2.7
12  C/C(=C(\CCOP(=O)(O)O)SC(=O)c1ccccc1)N(C=O)Cc1cnc(C)nc1N [benfotiamine, reference compound]  collagenase A (ColA) (Clostridium perfringens, UniProt P43153)  inhibition at 100 µM   -20.4
13                    O=c1ccc2cc(O)c(O)cc2o1  collagenase A (ColA) (Clostridium perfringens, UniProt P43153)  inhibition at 100 µM    11.8
14     O=C(/C=C/C=C/c1ccc2c(c1)OCO2)N1CCCCC1  collagenase A (ColA) (Clostridium perfringens, UniProt P43153)  inhibition at 100 µM    81.1
15  C[C@@H]1CC[C@H]2[C@@H](C)C(=O)O[C@@H]3O[C@@]4(C)CC[C@@H]1[C@]32OO4 [artemisinin, reference compound]  collagenase A (ColA) (Clostridium perfringens, UniProt P43153)  inhibition at 100 µM     5.6
16  O=S(=O)(O)CCS [sodium 2-mercaptoethanesulfonate, reference compound]  collagenase A (ColA) (Clostridium perfringens, UniProt P43153)  inhibition at 100 µM    20.6
17   COc1cc(-c2oc3cc(O)cc(O)c3c(=O)c2O)ccc1O  collagenase A (ColA) (Clostridium perfringens, UniProt P43153)  inhibition at 100 µM    19.9
18  COc1ccc2cc3[n+](cc2c1OC)CCc1cc2c(cc1-3)OCO2  collagenase A (ColA) (Clostridium perfringens, UniProt P43153)  inhibition at 100 µM    -2.5
